target: WEE1 (human); test: ELISA; conditions: compound 0.02 µM
QUANTITY_KIND: inhibition (%)
Kindly answer with a numeric value in %, unit omitted.

{"columns": ["COMPOUND_STRING", "inhibition [%]"],
 "data": [
  ["CNC(=O)c1cc(Oc2ccc(NC(=O)Nc3ccc(Cl)c(C(F)(F)F)c3)cc2)ccn1", -7.4],
  ["CNC(=O)c1ccccc1Sc1ccc2c(/C=C/c3ccccn3)n[nH]c2c1", 1.5],
  ["COc1cc2c(Oc3ccc4[nH]c(C)cc4c3F)ncnc2cc1OCCCN1CCCC1", -5.4]
]}

Exercise: Please provide the recorded inhibition for "Cc1ccc(Nc2nccc(N(C)c3ccc4c(C)n(C)nc4c3)n2)cc1S(N)(=O)=O" , tested on WEE1 (human).
Key: -3.7
